# target_or_system: BRD9 (Homo sapiens, UniProt Q9H8M2)
# Sequence (Q9H8M2 136-240 limits assumed): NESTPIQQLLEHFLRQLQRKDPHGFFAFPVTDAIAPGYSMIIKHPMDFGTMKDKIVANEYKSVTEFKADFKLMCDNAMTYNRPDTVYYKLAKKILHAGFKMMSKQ
# assay_remarks: BROMOscan bromodomain competitive binding assay (DiscoveRx), BRD9
# experimental_parameters: BROMOscan platform, n = 2
# Description: Compounds were tested using the commercially available BROMOscan™ Platform (DiscoveRx): http://www.discoverx.com/technologies-platforms/competitive-binding-technology/bromoscan-technology-platform/bromoscan-assay-process. Bromodomain assays. […] The bromodomain concentration in the eluates was measured by qPCR. An 11-point 3-fold serial dilution of each test compound was prepared in 100% DMSO at 1000× final test concentration. […] Most Kds were determined using a compound top concentration=10,000 nM. […]
Answer each item with its documented Kd.
One number for each entry, in nM.

I'm hoping you can list Kd for every compound here, please.
1. COc1cc2c(cc1NS(=O)(=O)c1ccc(C#N)cc1)c(C)cc(=O)n2C [Compound 33]
2. Cc1cc2cc(NS(=O)(=O)c3ccc(C#N)cc3)ccc2n(C)c1=O [Compound 19]

Result:
1: 890; 2: 310

I'm hoping you can list Kd for every compound here, please.
1. COc1cc2c(cc1NS(=O)(=O)c1ccc(C#N)cc1OC)cc(C)c(=O)n2C [Compound 27]
2. Cn1c(=O)ccc2cc(NS(=O)(=O)c3ccc(C#N)cc3)ccc21 [Compound 4]

Result:
170
910

Task: Which Kd value belongs to COc1cc2c(ccc(=O)n2C)cc1NS(=O)(=O)c1ccc(C#N)cc1 [Compound 11] ?
Result: 2700
